Experiment: Acute toxicity in beagles (Example 16)
Type: in vivo
Settings: both sexes, beagle, dog, in vivo, 2 g/kg, single intravenous injection, read-out: dog MTD, injected
readout.label: MTD at 14 d

So, CSCCC(C(=O)[O-])N(CC(O)C(O)C(O)C(O)CO)C(=S)[S][Na].[Na+] (stereo not shown) ? Its MTD at 14 d was > 2000 mg/kg

----------
Assay: Solid stability of compositions 1-11 and compounds 1A-11A: main component content over time under different conditions (Example 37, Table 32)
Format: physicochemical
Details: 60° C., 10 d
Response key: fulfilled means main component content >= 60%; not fulfilled means main component content < 60%.

## Input main component content >= 60% for O=C([O-])C(Cc1cccs1)N(CC(O)C(O)C(O)C(O)CO)C(=S)[S][Na].[Na+] (stereo not shown) ?
## Output fulfilled

## Input Does the reported main component content for CSCCC(C(=O)[O-])N(CC(O)C(O)C(O)C(O)CO)C(=S)[S][Na].[Na+] (stereo not shown) fall at or above the 60% mark?
## Output fulfilled

## Input Kindly determine if main component content recorded for O=C([O-])C(CCSCO)N(CC(O)C(O)C(O)C(O)CO)C(=S)[S][Na].[Na+] (stereo not shown) is above or exactly 60%.
## Output fulfilled

## Input hey, is main component content for this one >= 60%? O=C([O-])CCC(C(=O)[O-])N(CC(O)C(O)C(O)C(O)CO)C(=S)[S][Na].[Na+].[Na+] (stereo not shown)
## Output fulfilled

## Input Is reported main component content greater than or equal to 60% here: O=C([O-])C(CO)N(CC(O)C(O)C(O)C(O)CO)C(=S)[S][K].[K+] (stereo not shown) [Compound 10A]
## Output fulfilled

## Input Form field: main component content at least 60%? Entry: COc1ccc(CC(C(=O)[O-])N(CC(O)C(O)C(O)C(O)CO)C(=S)[S][Na])cc1.[Na+] (stereo not shown)
## Output fulfilled

## Input Quick check: does CC(C)C(C(=O)[O-])N(CC(O)C(O)C(O)C(O)CO)C(=S)[S][Na].[Na+] (stereo not shown) have main component content greater than or equal to 60%?
## Output not fulfilled

## Input # check: main component content of O=C([O-])C(CC1CCCCC1)N(CC(O)C(O)C(O)C(O)CO)C(=S)[S][Na].[Na+] (stereo not shown) is greater than or equal to 60%
## Output not fulfilled

## Input Does main component content meet or surpass 60% for O=C([O-])C(Cc1cncs1)N(CC(O)C(O)C(O)C(O)CO)C(=S)[S][Na].[Na+] (stereo not shown) ?
## Output fulfilled

Where these numbers come from: patent US20250295628A1
